Kindly state IC50 for each of the entries shown.
# TARGET_SYSTEM: KRas^G12C (Homo sapiens, UniProt P01116, G12C)
# Sequence (P01116 1-169 isoform P01116-2 G12C): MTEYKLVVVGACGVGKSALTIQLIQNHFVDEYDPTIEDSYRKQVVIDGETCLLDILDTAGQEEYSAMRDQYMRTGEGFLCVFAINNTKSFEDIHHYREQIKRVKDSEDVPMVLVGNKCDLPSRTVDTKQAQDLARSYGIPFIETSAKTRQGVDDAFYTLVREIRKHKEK
# ASSAY_COMMENT: biochemical
Write the number in nM without appending the unit.

# get_value(readout='IC50', item= CCc1cccc2cccc(N3CCc4c(nc(OCC56CCCN5CCC6)nc4N4CCCC(O)(C(F)F)C4)C3)c12 (stereo not shown) )
232

# get_value(readout='IC50', item= CCc1cccc2cccc(N3CCc4c(nc(OCC56CCCN5CCC6)nc4N4CCCC(N5CC(C)CS5(=O)=O)C4)C3)c12 (stereo not shown) )
190

# get_value(readout='IC50', item= CCc1cccc2cccc(N3CCc4c(nc(OCC56CCCN5CCC6)nc4N4CCCC(NC(=O)N(C)C)C4)C3)c12 (stereo not shown) )
382

# get_value(readout='IC50', item= CCc1cccc2cccc(N3CCc4c(nc(OCC56CCCN5CCC6)nc4N4CCCC(c5n[nH]c(C)n5)C4)C3)c12 (stereo not shown) )
256

---

# TARGET_SYSTEM: KRas^G12V (Homo sapiens, UniProt P01116, G12V)
# Construct: […]; biotin (biotinylated)
# Sequence (P01116 1-169 isoform P01116-2 G12V): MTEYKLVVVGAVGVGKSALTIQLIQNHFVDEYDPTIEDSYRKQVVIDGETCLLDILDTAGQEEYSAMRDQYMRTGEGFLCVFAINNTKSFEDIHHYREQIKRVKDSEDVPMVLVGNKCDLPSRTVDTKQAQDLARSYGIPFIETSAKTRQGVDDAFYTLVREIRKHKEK
# ASSAY_COMMENT: KRas binding assay (TR-FRET displacement of Cy5 labelled tracer)
METRIC: IC50 (nM)
Write the number in nM without appending the unit.

# get_value(readout='IC50', item= CCc1cccc2cccc(N3CCc4c(nc(OCC56CCCN5CCC6)nc4N4C[C@@H](C)C[C@@H](O)C4)C3)c12 )
404

# get_value(readout='IC50', item= CCc1cccc2cccc(N3CCc4c(nc(OCC56CCCN5CCC6)nc4N4CC(C)CC(CO)C4)C3)c12 (centres unmarked) )
936

# get_value(readout='IC50', item= CCc1cccc2cccc(N3CCc4c(nc(OCC56CCCN5CCC6)nc4N4CCC(c5[nH]ncc5N)C4)C3)c12 (centres unmarked) )
232

# get_value(readout='IC50', item= CC1(O)COCCN(c2nc(OC[C@@]34CCCN3C[C@H](F)C4)nc3c2CCN(c2cc(O)cc4ccc(F)c(Br)c24)C3)C1 (some centres unmarked) )
3

# get_value(readout='IC50', item= CCc1cccc2cccc(N3CCc4c(nc(OCC56CCCN5CCC6)nc4N4CCCC(P(C)(C)=O)C4)C3)c12 (centres unmarked) )
1580

# get_value(readout='IC50', item= CCc1cccc2cccc(N3CCc4c(nc(OCC56CCCN5CCC6)nc4NCc4cccnc4-n4cncn4)C3)c12 )
1380

# get_value(readout='IC50', item= CCc1cccc2cccc(N3CCc4c(nc(OCC56CCCN5CCC6)nc4N4CCCC(c5ncn[nH]5)C4)C3)c12 (centres unmarked) )
937

# get_value(readout='IC50', item= CCc1cccc2cccc(N3CCc4c(nc(OCC56CCCN5CCC6)nc4N4CCCC(c5cc(=O)[nH][nH]5)C4)C3)c12 (centres unmarked) )
1870

---

Kindly state IC50 for each of the entries shown.
# TARGET_SYSTEM: KRas^G12V (Homo sapiens, UniProt P01116, G12V)
# Construct: […]; biotin (biotinylated)
# ASSAY_COMMENT: KRas binding assay (TR-FRET displacement of Cy5 labelled tracer)
Write the number in nM without appending the unit.

Record CCc1cccc2cccc(N3CCc4c(nc(OCC56CCCN5CCC6)nc4N4CCCC(c5n[nH]c(C)n5)C4)C3)c12 (stereo not drawn) : what is its IC50 with KRas^G12V (Homo sapiens, UniProt P01116, G12V)?
701

Record CCc1cccc2cccc(N3CCc4c(nc(OCC56CCCN5CCC6)nc4NCc4c5c(n[nH]c4=O)CCCC5)C3)c12 : what is its IC50 with KRas^G12V (Homo sapiens, UniProt P01116, G12V)?
7310

Record Oc1cc(N2CCc3c(nc(OC[C@@]45CCCN4C[C@H](F)C5)nc3N3CC4CC(O)C(C4)C3)C2)c2c(Cl)c(F)ccc2c1 (stereo partly drawn) : what is its IC50 with KRas^G12V (Homo sapiens, UniProt P01116, G12V)?
4
